molecular target: T1, HLA-DQ2.5/alpha 1b gliadin peptide complex on Ba/F3 cells (human; wheat); experiment: FACS
T1 construct: also called Ba/F3-HLA-DQ2.5/alpha 1b gliadin peptide
Here the recorded FIG. 30 FACS value (IC17=0, DQN0139bb=100) is given for each entry.
Keep it simple and answer with nothing but the number.

Known results for binders:
BINDER	EXPERIMENTAL RESULT
DQN0225dd (antibody, human IgG1, kappa, V domains shown, also called DQN0225Hd; DQN0225Ld) VH: QSLEESGGGLVKPGGTLTLTCTASGFSFSSAYYMCWVRQAPGKGLEWIACIYVGSGSTYYASWAQGRCTISKASSTTVTLQMTSLTAADTATYFCARDPLIYYYYGELNLWGPGTLVTVSS VL: AVVLTQTASPVSAPVGGTVTIKCQASEDISSNLAWYQQKPGQRPKVLIYSASTLASGVSSQFKGSGSGTQFTLTISDLECADAATYYCQSYYDISSVTFGGGTKVEIKR	81.3
DQN0356bb (antibody, human IgG1, kappa, V domains shown, also called DQN0356Hb; DQN0356Lb) VH: QEQLVESGGGLVKPEGSLTLTCTASGFSFSSDYSVCWVRQAPGKGLEWIGCIYTGSDITYYASWAKGRFTISKTSSTTVTLQMTSLTAADTATWFCARSWNGYGGYADLWGPGTLVTVSS VL: AYDMAQTPASVEVAVGGTVTIKCQASQSIDNYLAWYQQKPGQPPKLLIYWASTLASGVSSRFKGSGSGTQFSLTISDLECADAATYYCQQYYSNSNVVNTFGGGTKVEIKR	88

### Prompt Note down FIG. 30 FACS value (IC17=0, DQN0139bb=100) recorded for DQN0333hh (antibody, human IgG1, kappa, V domains shown, also called DQN0333Lh) VH: QSVEESGGRLVMPGGSLTLTCTASGFSLSSYYMNWVRQAPGKGLEWIGVIYSTDITDYATWATGRFTISKTSTTVDLKMTSLTAADTATYFCARELSPTTSGYIAYLWGPGTLVTVSS VL: AYDMTQTPASVEVAVGGTVTIKCQASQSISSYLAWYQQKPGQPPKLLIYSASTLASGVPSRFKGSGSGTQFTLTVIDVQCDDAATYYCQQTYSGKNVINTFGGGTKVEIKR
### Response 108

All values here come from patent US20230118024A1.
